target: Calmodulin ( (human brain CaM or …, UniProt P0DP23 1-149)); test: SPR
Ends that are not written are not given here.
Quantity Measured: Kd (nM)
Field: numeric (nM). Do not append units.

Request: Give the measured Kd of LKKFNARRKLKGAILTTMLA (not fully specified) [Peptide corresponding to the CaM-binding region of CaMKIIα (CaMKII 290-309)] .
Response: 7.1
